Source listed as PubChem BioAssay (NCI).

- Tested on: NCI-H226 lung
- Procedure Details: NCI tumour cell line growth inhibition, 48 h; in the data active = GI50 below about 0.43 µM; inactive = the rest
Return exactly one item of active, inactive

q: // outcome(item) with item = N=c1c2c(-c3ccccc3)c(-c3ccccc3)n(Cc3ccccc3)c2ncn1CCCO
a: inactive

q: Try C[C@H]1[C@H](C)CC[C@]2(C(=O)N3CCN(C)CC3)CC[C@]3(C)C(=CC[C@@H]4[C@@]5(C)C/C(=C/c6cccnc6)C(=O)C(C)(C)[C@@H]5CC[C@]43C)[C@H]12 next.
a: inactive

Next:
q: // outcome(item) with item = Cc1ccc(/C=C2/SC(Nc3nc(-c4nc(NC5=NC(=O)/C(=C\c6ccc(C)cc6)S5)sc4C)c(C)s3)=NC2=O)cc1
a: inactive

q: Try COC(=O)c1cc(-c2cc(OC)c(OC)c(OC)c2)[nH]c1N/N=C/c1c(Cl)cccc1Cl next.
a: inactive

q: Try C=CCNCCCN1C(=O)c2ccc3c4c(ccc(c24)C1=O)C(=O)N(CCCNCC=C)C3=O next.
a: active

q: Try CCN(CCNc1ccc(C)c2sc3cc(Cl)ccc3c(=O)c12)CC(C)O (stereo unspecified) next.
a: inactive

----------
- System: SN12C renal
- Procedure Details: NCI tumour cell line growth inhibition, 48 h
Below is a list of entries, each paired with its recorded TGI value.

q: GET /values?readout=TGI&item= CS/C(=N\C(=S)Nc1ccccc1)Nc1ccccc1
a: 67.6 µM

q: Try COc1ccc(C(Cc2cc(OC)c(OC)c(OC)c2)C(=O)O)cc1 (centres undefined) next.
a: > 100 µM

q: Try COc1cccc(Nc2nc(-c3cccs3)nc3ccc(Br)cc23)c1 next.
a: > 100 µM

q: Try COc1cc(C(O)c2nc3ccccc3s2)cc(OC)c1OC (centres undefined) next.
a: > 100 µM

----------
- Test system: SR leukemia
- Procedure Details: NCI tumour cell line growth inhibition, 48 h
Below is a list of entries, each paired with its recorded TGI value.

Worked examples follow.
q: GET /values?readout=TGI&item= COc1ccn2c(C(C)=O)cc(C(=O)c3ccc4c(c3)Sc3ccccc3N4)c2c1
a: > 100 µM

q: Try CC1CC2C(=O)N(c3ccccc3)C(=O)C2c2c1c1ccccc1n2Cc1ccccc1 (stereo not given) next.
a: > 100 µM

q: Try O=C(Cc1ccccc1)NN1C(=O)C(Cl)C1c1ccc([N+](=O)[O-])cc1 (stereo not given) next.
a: > 100 µM

q: Try C=CC1=C[C@@H]2[C@@H]3O[C@]4(CC[C@H](O4)[C@@H](C)C[C@@H](O)C3=O)C[C@H](O)C3=NCC[C@@]32CC1 next.
a: > 33.3 µM

Now consider a different compound.
q: GET /values?readout=TGI&item= COc1ccc(-c2cc(-c3ccc(Nc4ccnc5cc(Cl)ccc45)cc3)nc(N)c2C#N)cc1
a: > 100 µM

----------
- Tested on: IGROV1 ovarian
- Procedure Details: NCI tumour cell line growth inhibition, 48 h
Below is a list of entries, each paired with its recorded TGI value.

Worked examples follow.
q: GET /values?readout=TGI&item= O=c1c2c(c1=O)C1(SCCCS1)c1cc(Cl)ccc1O2
a: > 100 µM

q: Try Cc1ccc(S(=O)(=O)NNC(=O)c2sc(-c3nc(C)c(C(=O)NNS(=O)(=O)c4ccc(C)cc4)s3)nc2C)cc1 next.
a: > 100 µM

q: Try NNC(=O)CCC(=O)Nc1cc(Cl)c(Cl)cc1Cl next.
a: > 100 µM

q: Try CCN(CCCN(CC)C(=O)Nc1ccccc1)C(=O)Nc1ccccc1 next.
a: > 100 µM

q: Try C=C1CCC2CC1[C@@H](C(=O)c1c[nH]c3ccccc13)NC2(C)C (stereo partly drawn) next.
a: > 37.5 µM

Next:
q: GET /values?readout=TGI&item= NC1CC(N)c2c(Br)sc(Br)c21 (stereo not drawn)
a: > 100 µM

q: Try CN(C(=O)c1ccc(Cl)cc1)C(=S)N1CCN(c2ccccn2)CC1 next.
a: > 100 µM

q: Try Cn1ccnc1C(=O)/C=C/c1ccc(CC(=O)Nc2ccc(S(F)(F)(F)(F)F)cc2)cc1 next.
a: 7.29 µM
